Test system: Fibroblast
assaySummary: Multiplex assay against human fibroblast
Assay type: toxicity, cell-based
assayContext: 48 h, 10 µM, compound concentration 10 uM, replicate 2
quantityKind: Population Membrane Permeable-Phenotype (%)
The answer is to be given in %; state only the numeric part.

See these solved cases before continuing.
| compound | valueReported |
| --- | --- |
| CCc1cccc(CC)c1NC(=O)c1nn(C)c2c1CCc1cnc(Nc3ccc(C(=O)NC4CCN(C)CC4)cc3OC(F)(F)F)nc1-2 | 30 |
| COc1cc(N2CCN(C)CC2)ccc1Nc1ncc2c(n1)N(C)c1ccccc1C(=O)N2C | 5 |
| Cc1ccc(C(=O)Nc2cccc(C(F)(F)F)c2)cc1Nc1nc(-c2cccnc2)nc2c1cnn2C | 14 |
| O=C(Nc1ccc(Cl)cc1)Nc1cccc(-c2cccc(N3CCCC3)n2)c1 | 27 |
| CCn1c(=O)c(-c2ccc(-c3cncs3)cc2Cl)cc2cnc(Nc3ccc(N4CCN(C)CC4)cc3)nc21 | 10 |
| CCN1CCN(Cc2ccc(Nc3ncc(F)c(-c4cc(F)c5nc(C)n(C(C)C)c5c4)n3)nc2)CC1.CS(=O)(=O)O | 23 |

Population Membrane Permeable-Phenotype (%) reading for Cl.Oc1ccc2c3c1O[C@H]1c4[nH]c5c(c4C[C@@]4(O)[C@@H](C2)N(CC2CC2)CC[C@]314)C[C@@]1(O)[C@H]2Cc3ccc(O)c4c3[C@@]1(CCN2CC1CC1)[C@H]5O4 : 14

Population Membrane Permeable-Phenotype (%) reading for CCOC(=O)c1c(C)[nH]c2ccc3c(c12)CN1CCc2cc(OC)ccc2C1O3 (configuration not stated) : 0

Population Membrane Permeable-Phenotype (%) reading for O=C(Nc1ccc(-c2ccnc(Nc3ccc(N4CCOCC4)cc3)n2)cc1)[C@@H]1CCCN1 : 20

Population Membrane Permeable-Phenotype (%) reading for COCC(=O)NC/C=C/c1ccc2ncnc(Nc3ccc(Oc4ccc(C)nc4)c(C)c3)c2c1 [CP-724714] : 14

Population Membrane Permeable-Phenotype (%) reading for O=C1N/C(=N/c2ccccc2F)S/C1=C\c1ccc(C(=O)O)cc1 : 16

Population Membrane Permeable-Phenotype (%) reading for Cc1cc(C)c(S(=O)(=O)N(Cc2ccc(-c3cccc(S(C)(=O)=O)c3)cc2)Cc2ccc(C(F)(F)F)o2)c(C)c1 : 5

---

Tested on: U2OS
assaySummary: Multiplex assay against U2OS
Type: toxicity, cell-based
assayContext: human, 12 h, 10 µM, compound concentration 10 uM, replicate 2
quantityKind: Population Hoechst High Intensity Objects (%)
The answer is to be given in %; state only the numeric part.

Population Hoechst High Intensity Objects (%) reading for CCCS(=O)(=O)Nc1ccc(F)c(C(=O)c2c[nH]c3ncc(Cl)cc23)c1F : 9

Population Hoechst High Intensity Objects (%) reading for Cn1nc(C(F)(F)F)cc1-c1cnc(N2CCc3cc(S(=O)(=O)Nc4c(F)cc(Cl)cc4F)cc(N4CCCC4=O)c32)nc1 : 5

Population Hoechst High Intensity Objects (%) reading for CN1CCN(C(=O)C(C)(C)c2ccc(C(=O)Nc3cn4cc(-c5cc(C(C)(C)C)cc(C(C)(C)C)c5)ccc4n3)cc2)CC1 : 15

Population Hoechst High Intensity Objects (%) reading for CCCn1c(=O)c2[nH]c(-c3cnn(Cc4cccc(C(F)(F)F)c4)c3)nc2n(CC)c1=O : 5

Population Hoechst High Intensity Objects (%) reading for CNc1cc(Oc2cc(C(=O)Nc3cc(N4CCN(C)CC4)cc(C(F)(F)F)c3)ccc2C)ncn1 : 33

Population Hoechst High Intensity Objects (%) reading for CN(C)C(=O)C(CCN1CCC(O)(c2ccc(Cl)cc2)CC1)(c1ccccc1)c1ccccc1.Cl [LOPERAMIDE HYDROCHLORIDE] : 6

Population Hoechst High Intensity Objects (%) reading for CCCS(=O)(=O)c1nc(NC2CC2)cc(-c2ccc3c(ccn3C3CC(C)(C)NC(C)(C)C3)c2)n1 : 7
